Data provenance: patent US6710063B1

Reported melting point values are given for each entry in this list.

Field melting point (entry Cc1cc(SCc2sc(-c3ccc(Br)cc3)nc2C)ccc1OCC(=O)O [Example 69] ) reads > 250 °C

Field melting point (entry Cc1nc(-c2ccc(C(F)(F)F)cc2)sc1COc1ccc(CC(=O)O)cc1Cl [Example 36] ) reads 126 to 127 °C

Field melting point (entry Cc1cc(SCc2sc(-c3cc(C(F)(F)F)cc(C(F)(F)F)c3)nc2C)ccc1OCC(=O)O [Example 79] ) reads 178 °C

* * *

Counter-ions that a name gives are not always drawn.
Reported melting point values are given for each entry in this list.

The examples below pair each entry with its known result.
- molecule: "Cc1nc(-c2ccc(C(F)(F)F)cc2)oc1COc1ccc(CC(=O)O)cc1Cl (as salt: salt) [Example 50]"
  assayResult: "189 to 191 °C"
- molecule: "Cc1nc(-c2ccc(C(F)(F)F)cc2)oc1COc1ccc(/C=C/C(=O)O)cc1 [Example 22]"
  assayResult: "193 °C"
- molecule: "Cc1sc(-c2ccc(C(F)(F)F)cc2)nc1CCOc1ccc(CCC(=O)O)cc1 [Example 10]"
  assayResult: "142 to 147 °C"

Field melting point (entry Cc1nc(-c2ccc(C(F)(F)F)cc2)sc1CCOc1ccc(CCC(=O)O)cc1 [Example 14] ) reads 128 to 130 °C

Field melting point (entry COc1cc(CC(=O)O)ccc1SCc1sc(-c2ccc(C(F)(F)F)cc2)nc1C (as salt: salt) [Example 52] ) reads 181 to 182 °C

Field melting point (entry Cc1cc(SCc2sc(-c3ccc(Cl)cc3)nc2C)ccc1OCC(=O)O [Example 71] ) reads 109 °C

Field melting point (entry Cc1nc(-c2ccc(C(F)(F)F)cc2)oc1COc1ccc(SCC(=O)O)cc1 [Example 44] ) reads 138 to 140 °C

Field melting point (entry Cc1nc(-c2ccc(C(F)(F)F)cc2)sc1CSc1ccc(CC(=O)O)cc1 (as salt: salt) [Example 48] ) reads 202 to 203 °C

Field melting point (entry Cc1cc(SCc2sc(-c3ccc(F)c(F)c3)nc2C)ccc1OCC(=O)O [Example 77] ) reads 119 °C

Field melting point (entry Cc1nc(-c2cccc(C(F)(F)F)c2)oc1COc1ccc(CCC(=O)O)cc1 [Example 16] ) reads 134 to 135 °C

Field melting point (entry Cc1cc(OCc2sc(-c3ccc(C(F)(F)F)cc3)nc2C)ccc1OCC(=O)O [Example 54] ) reads 174 to 176 °C

* * *

Reported melting point values are given for each entry in this list.

The examples below pair each entry with its known result.
- molecule: "Cc1nc(-c2ccc(C(F)(F)F)cc2)sc1COc1ccc(N(C)CC(=O)O)cc1 [Example 38]"
  melting point: "124 to 126 °C"
- molecule: "COc1cc(CCC(=O)O)ccc1OCc1sc(-c2ccc(C(F)(F)F)cc2)nc1C [Example 6]"
  melting point: "150 to 152 °C"
- molecule: "Cc1cc(SCc2sc(-c3ccc(F)cc3)nc2C)ccc1OCC(=O)O [Example 73]"
  melting point: "45 to 46 °C"
- molecule: "Cc1cc(SCc2sc(-c3ccc(Cl)c(Cl)c3)nc2C)ccc1OCC(=O)O [Example 75]"
  melting point: "143 °C"
- molecule: "Cc1nc(-c2ccc(C(F)(F)F)cc2)sc1CCOc1ccc(CC(=O)O)cc1 [Example 32]"
  melting point: "128 to 130 °C"

Field melting point (entry COc1cc(CCC(=O)O)ccc1OCc1oc(-c2ccc(C(F)(F)F)cc2)nc1C [Example 24] ) reads 162 to 163 °C

Field melting point (entry Cc1nc(-c2ccc(C(F)(F)F)cc2)sc1CSc1ccc(OCC(=O)O)cc1 [Example 62] ) reads 190 °C
